B1: library; numbered along this chain (parent)
chain: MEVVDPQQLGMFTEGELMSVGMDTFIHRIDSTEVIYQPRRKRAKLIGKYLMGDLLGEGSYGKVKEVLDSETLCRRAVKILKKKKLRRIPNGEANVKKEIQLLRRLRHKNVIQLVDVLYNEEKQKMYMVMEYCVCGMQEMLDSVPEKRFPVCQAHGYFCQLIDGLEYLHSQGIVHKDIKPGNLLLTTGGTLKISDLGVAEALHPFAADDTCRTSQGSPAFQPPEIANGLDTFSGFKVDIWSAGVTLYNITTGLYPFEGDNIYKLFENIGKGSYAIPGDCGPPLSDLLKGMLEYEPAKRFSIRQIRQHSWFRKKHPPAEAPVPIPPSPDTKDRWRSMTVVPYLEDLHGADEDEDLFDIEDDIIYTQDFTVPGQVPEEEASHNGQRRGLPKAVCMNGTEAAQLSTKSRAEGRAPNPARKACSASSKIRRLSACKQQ

- Variants of: B1
- Assay procedure: STK11 functional score (HeLa growth suppression), rescaled enrichment; synonymous median = 1, nonsense median = 0 (normalised score)
- Setup conditions: with HeLa; variant type: missense
Decide by STK11 functional score: equal to or exceeding 1 means met, less means not met.

Example cases with answers are listed next.
Mutant label: N412I
Category: met
//
Mutant label: V338D
Category: met
//
Mutant label: L9Y
Category: met

In: Answer whether STK11 functional score of `Y156T` is greater than or equal to 1.
Out: met

In: Is it the case that `P217C` has STK11 functional score reaching or exceeding 1?
Out: not met

In: Could you tell me if the measured STK11 functional score of `S334F` reaches 1 or more?
Out: met
